Test system: host cell proteins (HCP)
Experiment: Microtiter plate chromatography of resins, host cell proteins (bound)
Format: binding, CHO
Conditions: host cell proteins

{"smiles_text": "COc1ccc(NC(=O)c2cn3ccsc3n2)cc1C(=O)NCCCN", "HCP Bound (%)": 29}
{"smiles_text": "COc1ccc(NC(=O)c2cc(-c3cc(Br)cs3)n(C)n2)cc1C(=O)NCCCN", "HCP Bound (%)": 59}
{"smiles_text": "COc1ccc(NC(=O)c2onc3ccccc23)cc1C(=O)NCCCN", "HCP Bound (%)": 23}
{"smiles_text": "COc1ccc(NC(=O)c2occ3ccccc23)cc1C(=O)NCCCN", "HCP Bound (%)": 49}
{"smiles_text": "COc1ccc(NC(=O)c2cn3cccnc3n2)cc1C(=O)NCCCN", "HCP Bound (%)": 3}
{"smiles_text": "COc1ccc(NC(=O)c2nn(C)c3ccccc23)cc1C(=O)NCCOCCOCC(=O)NCCCN", "HCP Bound (%)": 30}
{"smiles_text": "COc1ccc(NC(=O)c2nn(C)c3ccccc23)cc1C(=O)NCCCN", "HCP Bound (%)": 35}
{"smiles_text": "COc1ccc(NC(=O)c2nnc(-c3ccco3)o2)cc1C(=O)NCCCN", "HCP Bound (%)": 23}
{"smiles_text": "COc1ccc(NC(=O)c2cncc(-c3cccs3)c2)cc1C(=O)NCCCN", "HCP Bound (%)": 48}

###

Test system: host cell proteins (HCP)
Assay: Microtiter plate chromatography of resins, host cell proteins (bound)
Format: binding, CHO
Conditions: host cell proteins
Rule: HCP Bound (%) below 20% gives class 1, anything at or above gives class 0.

{"compound": "COc1ccc(NC(=O)c2cn3ccccc3n2)cc1C(=O)NCCCN [Ligand L57]", "assigned_category": "class 1"}
{"compound": "COc1ccc(C(=O)Nc2nn(C)c3ccccc23)cc1C(=O)NCCCN [Ligand L39]", "assigned_category": "class 0"}
{"compound": "COc1ccc(NC(=O)c2cn3ccsc3n2)cc1C(=O)NCCOCCOCC(=O)NCCCC[C@H](NC(=O)COCCOCCNC(=O)c1cc(NC(=O)c2cn3ccsc3n2)ccc1OC)C(=O)NCCCN [Ligand L50]", "assigned_category": "class 1"}
{"compound": "COc1ccc(NC(=O)c2cc(C(F)(F)F)n(C)n2)cc1C(=O)NCCCN [Ligand L34]", "assigned_category": "class 0"}
{"compound": "COc1ccc(NC(=O)c2cc(-c3cccc(Cl)c3)n(C)n2)cc1C(=O)NCCCN [Ligand L7]", "assigned_category": "class 0"}
{"compound": "COc1ccc(NC(=O)c2nc3cccnc3[nH]2)cc1C(=O)NCCCN [Ligand L41]", "assigned_category": "class 1"}
{"compound": "COc1ccc(NC(=O)c2nccc3ccccc23)cc1C(=O)NCCCN [Ligand L35]", "assigned_category": "class 0"}
{"compound": "COc1ccc(NC(=O)c2nn(CCO)c3ccccc23)cc1C(=O)NCCCN [Ligand L59]", "assigned_category": "class 0"}

###

Consider the following molecules and their measured Selectivity readings.
Test system: Bevacizumab
Assay: Microtiter plate chromatography of resins, Bevacizumab whole IgG (bound, yield, selectivity)
Type: binding, humanized
Details: fraction of bound Bevacizumab whole IgG / fraction of bound HCP; truncated beyond values of 10

{"smiles_text": "COc1ccc(NC(=O)c2cn3ncccc3n2)cc1C(=O)NCCOCCOCC(=O)NCCCC[C@H](NC(=O)COCCOCCNC(=O)c1cc(NC(=O)c2cn3ncccc3n2)ccc1OC)C(=O)NCCCN", "Selectivity": 10.0}
{"smiles_text": "COc1ccc(NC(=O)c2nc3cccnc3[nH]2)cc1C(=O)NCCCN", "Selectivity": 10.0}
{"smiles_text": "COc1ccc(NC(=O)c2nn(C)c3ncccc23)cc1C(=O)NCCCN", "Selectivity": 10.0}
{"smiles_text": "COc1ccc(NC(=O)c2cn3ccsc3n2)cc1C(=O)NCCCNC(=O)CC[C@H](N)C(=O)NCCCNC(=O)c1cc(NC(=O)c2cn3ccsc3n2)ccc1OC", "Selectivity": 2.8}
{"smiles_text": "COc1ccc(NC(=O)c2cn3cccnc3n2)cc1C(=O)NCCCN", "Selectivity": 10.0}
{"smiles_text": "COc1ccc(NC(=O)c2cn3ccsc3n2)cc1C(=O)NCCCC[C@H](NC(=O)c1cc(NC(=O)c2cn3ccsc3n2)ccc1OC)C(=O)NCCCN", "Selectivity": 6.1}
{"smiles_text": "COc1ccc(NC(=O)c2cn3ccsc3n2)cc1C(=O)NCCOCCOCC(=O)NCCCC[C@H](NC(=O)COCCOCCNC(=O)c1cc(NC(=O)c2cn3ccsc3n2)ccc1OC)C(=O)NCCCN", "Selectivity": 6.9}
{"smiles_text": "COc1ccc(NC(=O)c2cn3ncccc3n2)cc1C(=O)NCCCN", "Selectivity": 10.0}
